Biological target: UniProtKB P18031
Sequence (P18031 whole entry): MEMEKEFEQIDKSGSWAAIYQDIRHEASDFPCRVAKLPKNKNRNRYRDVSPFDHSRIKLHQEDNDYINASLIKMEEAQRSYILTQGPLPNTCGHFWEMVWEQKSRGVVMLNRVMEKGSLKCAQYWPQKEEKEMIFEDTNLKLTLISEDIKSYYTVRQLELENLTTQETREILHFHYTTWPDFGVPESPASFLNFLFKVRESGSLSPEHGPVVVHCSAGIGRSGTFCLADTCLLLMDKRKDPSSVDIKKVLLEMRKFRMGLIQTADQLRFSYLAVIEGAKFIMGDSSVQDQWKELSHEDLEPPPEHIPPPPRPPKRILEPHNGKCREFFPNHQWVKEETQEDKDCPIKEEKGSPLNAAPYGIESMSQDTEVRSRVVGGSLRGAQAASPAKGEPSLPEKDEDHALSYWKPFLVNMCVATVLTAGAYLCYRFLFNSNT
MEASURED METRIC: IC50 (µM)
Numbers only, in µM.

# SMILES STRING, IC50 (µM)
records = [
    ("O=S(=O)(Nc1ccc2oc(-c3ccc(NS(=O)(=O)c4ccc(Cl)s4)cc3)nc2c1)c1ccccc1", 14),
    ("Cc1ccc(S(=O)(=O)Nc2ccc(-c3nc4ccccc4o3)cc2)cc1", 42),
    ("COc1ccc(S(=O)(=O)Nc2ccc3oc(-c4ccc(NS(=O)(=O)c5ccc(Cl)s5)cc4)nc3c2)cc1", 12),
    ("O=S(=O)(Nc1ccc2oc(-c3ccccc3)nc2c1)c1ccc(Cl)s1", 76),
    ("CCc1ccc(S(=O)(=O)Nc2ccc3oc(-c4ccc(NS(=O)(=O)c5ccc(Cl)s5)cc4)nc3c2)cc1", 11),
]

Would you mind giving IC50 for every compound in the list below?
1. O=S(=O)(Nc1ccc2oc(-c3ccc(NS(=O)(=O)c4ccc(Cl)s4)cc3)nc2c1)c1cccs1
2. O=S(=O)(Nc1ccc(-c2nc3cc(NS(=O)(=O)c4ccc(C(F)(F)F)cc4)ccc3o2)cc1)c1ccc(C(F)(F)F)cc1
3. COc1cccc(S(=O)(=O)Nc2ccc(-c3nc4ccccc4o3)cc2)c1

OUTPUT:
1. 13
2. 6.4
3. 51

Would you mind giving IC50 for every compound in the list below?
1. COc1ccc(Cl)cc1S(=O)(=O)Nc1ccc2oc(-c3ccc(NS(=O)(=O)c4ccc(Cl)s4)cc3)nc2c1
2. O=S(=O)(Nc1ccc2oc(-c3ccccc3)nc2c1)c1ccc(F)c(C(F)(F)F)c1
3. O=S(=O)(Nc1ccc(-c2nc3cc(NS(=O)(=O)c4cccc5nsnc45)ccc3o2)cc1)c1cccc2nsnc12

OUTPUT:
10
76
10

Would you mind giving IC50 for every compound in the list below?
1. O=S(=O)(Nc1ccc2oc(-c3ccccc3)nc2c1)c1cccc(Cl)c1
2. Nc1ccc(S(=O)(=O)Nc2ccc(-c3nc4cc(NS(=O)(=O)c5ccc(N)cc5)ccc4o3)cc2)cc1

OUTPUT:
[88, 27]

---

Here's what we have: IC50 numbers for Phosphotyrosine protein phosphatase (Mycobacterium tuberculosis).
One number for each entry, in µM.

# SMILES STRING, UNITS, IC50
records = [
    ("O=S(=O)(Nc1ccc(-c2nc3cc(NS(=O)(=O)c4ccc(F)cc4)ccc3o2)cc1)c1ccc(F)cc1", "µM", 18),
    ("O=S(=O)(Nc1ccc2oc(-c3ccc(NS(=O)(=O)c4ccc(Cl)s4)cc3)nc2c1)c1ccc2ncsc2c1", "µM", 3.6),
    ("O=S(=O)(Nc1ccc2oc(-c3ccccc3)nc2c1)c1ccc(F)cc1", "µM", 85),
    ("O=S(=O)(Nc1ccc(-c2nc3cc(NS(=O)(=O)c4ccc(Cl)s4)ccc3o2)cc1)c1ccc(Cl)c(Cl)c1", "µM", 2.3),
]

Would you mind giving IC50 for every compound in the list below?
1. O=S(=O)(Nc1ccc(-c2nc3cc(NS(=O)(=O)c4ccc(Cl)cc4)ccc3o2)cc1)c1ccc(Cl)cc1
2. O=S(=O)(Nc1ccc(-c2nc3cc(NS(=O)(=O)c4ccc(Cl)s4)ccc3o2)cc1)c1ccc2ncsc2c1
3. O=S(=O)(Nc1ccc(-c2nc3cc(NS(=O)(=O)c4cccc(O)c4)ccc3o2)cc1)c1cccc(O)c1
4. CS(=O)(=O)Nc1ccc(-c2nc3cc(NS(=O)(=O)c4ccc(Cl)s4)ccc3o2)cc1

OUTPUT:
1: 4.3; 2: 7.1; 3: 1.5; 4: 37

Would you mind giving IC50 for every compound in the list below?
1. COc1ccccc1S(=O)(=O)Nc1ccc(-c2nc3cc(NS(=O)(=O)c4ccccc4OC)ccc3o2)cc1
2. O=S(=O)(Nc1ccc(-c2nc3cc(NS(=O)(=O)c4ccc(O)cc4)ccc3o2)cc1)c1ccc(O)cc1
3. COc1ccc(Cl)cc1S(=O)(=O)Nc1ccc(-c2nc3ccccc3o2)cc1

OUTPUT:
8.7
12
29

Would you mind giving IC50 for every compound in the list below?
1. O=S(=O)(Nc1ccc(-c2nc3cc(NS(=O)(=O)c4cccc5ccccc45)ccc3o2)cc1)c1ccc(Cl)s1
2. O=[N+]([O-])c1cccc(S(=O)(=O)Nc2ccc(-c3nc4cc(NS(=O)(=O)c5cccc([N+](=O)[O-])c5)ccc4o3)cc2)c1

OUTPUT:
1: 2.2; 2: 9.1

Would you mind giving IC50 for every compound in the list below?
1. Cc1cccc(S(=O)(=O)Nc2ccc3oc(-c4ccccc4)nc3c2)c1
2. O=S(=O)(Nc1ccc2oc(-c3ccc(NS(=O)(=O)c4ccc(Cl)s4)cc3)nc2c1)c1ccccc1
3. Cc1ccccc1S(=O)(=O)Nc1ccc(-c2nc3ccccc3o2)cc1
4. O=C(O)c1ccccc1S(=O)(=O)Nc1ccc(-c2nc3cc(NS(=O)(=O)c4ccccc4C(=O)O)ccc3o2)cc1

OUTPUT:
1: 63; 2: 8.8; 3: 38; 4: 4.2

INPUT: IC50 for O=S(=O)(Nc1ccc(-c2nc3cc(NS(=O)(=O)c4ccc(Br)cc4)ccc3o2)cc1)c1ccc(Br)cc1 ?
OUTPUT: 3.6

Data provenance: ChEMBL document CHEMBL4387722
